Where do these numbers come from? They come from patent US12527782B2.

system: Colon CXF 280; test: CFA, CXF 280; assay type: cell-based, human; conditions: PDX/CFA
parameter: pIC50
Scale: pIC50 equals -log10([C]), with [C] in mol/L.

Q) pIC50 lookup needed for CC/C=C\CC1C(=O)CCC1CC(=O)Oc1cccc2cccnc12 (stereo not shown) , thanks.
A) 5.26

====

test system: HeLa cells; test: Apoptosis induction in HeLa cells (FACS, propidium iodide and annexin V); format: cell-based; details: Homo sapiens, 48 hr incubation
parameter: pIC50
Please treat pIC50 as minus the base-10 logarithm of the molar concentration.

Q) Consider the molecule `O=C(N1CCN(c2ccccc2)CC1)N1c2ccccc2Oc2ccccc21` and give its measured pIC50.
A) 7.15

====

test system: Leukemia (BCLL) LEXFCL MEC-1; assay: CFA, LEXFCL MEC-1; type: cell-based, human; details: Cell line/CFA
parameter: pIC50
Field pIC50 (float): negative decimal logarithm of the concentration in molar.

Q) # pIC50 lookup, item CC/C=C\CC1C(=O)CCC1CC(=O)Oc1cccc2cccnc12 (stereo not shown)
A) 5.93

====

Tested on: Breast MAXF MDA-MB-231
Assay: CFA, MAXF MDA-MB-231
Type: cell-based, human
Details: Cell line/CFA
Experimental: CFA was performed by Charles River Laboratories (Freiburg, Germany) in 96-well plate format according to a modified two-layer soft agar assay. The origin of the tumor xenografts has been described (Fiebig et al. 1989, incorporated herein by reference). The list of tumors used in this study is detailed in Table 1.
parameter: IC50 (nM)
Dear colleague, please return just the value in nM, with no unit written.

Q) Notebook entry, Breast MAXF MDA-MB-231 assay: IC50 of CC/C=C\CC1C(=O)CCC1CC(=O)Oc1cccc2cccnc12 (stereo not shown) [Formula C] = ?
A) 1700

====

test system: Leukemia (BCLL) LEXFCM JURL-MK1; assay: CFA, LEXFCM JURL-MK1; format: cell-based, human; details: Cell line/CFA
parameter: pIC50
FYI, pIC50 means -log10 of a concentration in mol per litre.

Q) Param readout = pIC50; param system = Leukemia (BCLL) LEXFCM JURL-MK1; param query = CC/C=C\CC1C(=O)CCC1CC(=O)Oc1cccc2cccnc12 (stereo not shown) ; response: value
A) 5.78

====

tested on: Leukemia (ALL) LEXFAL MOLT-4; assay: CFA, LEXFAL MOLT-4; assay type: cell-based, human; details: Cell line/CFA
parameter: pIC50
API: returns pIC50 as number; meaning -log10 of concentration in mol/L.

Q) So what does the record say about pIC50 for CC/C=C\CC1C(=O)CCC1CC(=O)Oc1cccc2cccnc12 (stereo not shown) [Formula C] ?
A) 5.64

====

tested on: Lymphoma (Non-Hodgkin) LYXF MY-LA; assay: CFA, LYXF MY-LA; assay type: cell-based, human; details: Cell line/CFA
parameter: pIC50
Remember the convention: pIC50 equals -log10 of concentration in molar.

Q) Value lookup for pIC50; key = CC/C=C\CC1C(=O)CCC1CC(=O)Oc1cccc2cccnc12 (stereo not shown)
A) 6.00

====

system: Lung (NSCLC, adeno) LXFA 1041; test: CFA, LXFA 1041; assay type: cell-based, human; conditions: PDX/CFA
parameter: IC50 (nM)
Response body: numeric value in nM, unit text excluded.

Q) May I ask what IC50 has been recorded for CC/C=C\CC1C(=O)CCC1CC(=O)Oc1cccc2cccnc12 (stereo not shown) ?
A) 1500

====

Test system: Lung (SCLC) LXFS 2156
Assay: CFA, LXFS 2156
Type: cell-based, human
Settings: PDX/CFA
Description: CFA was performed by Charles River Laboratories (Freiburg, Germany) in 96-well plate format according to a modified two-layer soft agar assay. The origin of the tumor xenografts has been described (Fiebig et al. 1989, incorporated herein by reference). The list of tumors used in this study is detailed in Table 1.
parameter: IC50
Enter the number, and then the unit.

Q) Item CC/C=C\CC1C(=O)CCC1CC(=O)Oc1cccc2cccnc12 (stereo not shown) has what recorded IC50?
A) 3.56 µM

====

Tested on: Skin SCC VXF A-431
Assay: CFA, VXF A-431
Format: cell-based, human
Details: Cell line/CFA
Procedure: CFA was performed by Charles River Laboratories (Freiburg, Germany) in 96-well plate format according to a modified two-layer soft agar assay. The origin of the tumor xenografts has been described (Fiebig et al. 1989, incorporated herein by reference). The list of tumors used in this study is detailed in Table 1.
parameter: IC50 (nM)
Express it in nM; write the number only.

Q) Endpoint output: IC50 of CC/C=C\CC1C(=O)CCC1CC(=O)Oc1cccc2cccnc12 (stereo not shown) . Value?
A) 364

====

system: Kidney RXF 423; test: CFA, RXF 423; format: cell-based, human; details: PDX/CFA
parameter: pIC50
Lab note — pIC50 values are minus log10 of concentrations in M.

Q) Query (compound): CC/C=C\CC1C(=O)CCC1CC(=O)Oc1cccc2cccnc12 (stereo not shown) ; field requested: pIC50
A) 5.77

====

system: Pancreas PAXF Mia-Pa-Ca-2; assay: CFA, PAXF Mia-Pa-Ca-2; type: cell-based, human; conditions: Cell line/CFA
parameter: pIC50
Formally, pIC50 is defined as -log10 of the concentration c, with c in mol/L.

Q) Data request, read-out pIC50, for CC/C=C\CC1C(=O)CCC1CC(=O)Oc1cccc2cccnc12 (stereo not shown) [Formula C]
A) 5.71

====

tested on: Lung (NSCLC, large) LXFL 1072; experiment: CFA, LXFL 1072; assay type: cell-based, human; settings: PDX/CFA
parameter: IC50 (nM)
Number in nM, nothing else.

Q) State the recorded IC50 for this entry: CC/C=C\CC1C(=O)CCC1CC(=O)Oc1cccc2cccnc12 (stereo not shown)
A) 1570

====

tested on: Leukemia (BCLL) LEXFCM EM-2; assay: CFA, LEXFCM EM-2; type: cell-based, human; conditions: Cell line/CFA
parameter: pIC50
Note on units: pIC50 is unitless, being -log10 of a concentration expressed in mol/L.

Q) pIC50 lookup needed for CC/C=C\CC1C(=O)CCC1CC(=O)Oc1cccc2cccnc12 (stereo not shown) , thanks.
A) 5.56

====

System: Leukemia (AML) LEXFAM KG-1a
Test: CFA, LEXFAM KG-1a
Assay type: cell-based, human
Conditions: Cell line/CFA
Method: CFA was performed by Charles River Laboratories (Freiburg, Germany) in 96-well plate format according to a modified two-layer soft agar assay. The origin of the tumor xenografts has been described (Fiebig et al. 1989, incorporated herein by reference). The list of tumors used in this study is detailed in Table 1.
parameter: pIC50
Lab note: report pIC50 as minus log10 of the concentration in molar units, number only.

Q) Which pIC50 is reported for this compound? CC/C=C\CC1C(=O)CCC1CC(=O)Oc1cccc2cccnc12 (stereo not shown) [Formula C]
A) 5.72

====

tested on: Leukemia (AML) LEXFAM OCI-AML2; assay: CFA, LEXFAM OCI-AML2; format: cell-based, human; settings: Cell line/CFA
parameter: pIC50
Would you please state pIC50, meaning minus log10 of the concentration in mol/L, as a bare number?

Q) Quick one: pIC50 of CC/C=C\CC1C(=O)CCC1CC(=O)Oc1cccc2cccnc12 (stereo not shown) [Formula C] ?
A) 6.01

====

system: Leukemia (AML) LEXFAM NOMO-1; experiment: CFA, LEXFAM NOMO-1; format: cell-based, human; settings: Cell line/CFA
parameter: IC50 (nM)
# output: bare number, implied unit nM

Q) Item CC/C=C\CC1C(=O)CCC1CC(=O)Oc1cccc2cccnc12 (stereo not shown) [Formula C] with Leukemia (AML) LEXFAM NOMO-1 - IC50?
A) 1420

====

test system: Skin SCC SKXF 1834; assay: CFA, SKXF 1834; type: cell-based, human; details: PDX/CFA
parameter: pIC50
Please keep in mind that pIC50 is minus log10 of the molar concentration; only the number is needed.

Q) Need pIC50, item CC/C=C\CC1C(=O)CCC1CC(=O)Oc1cccc2cccnc12 (stereo not shown)
A) 6.13
